# protocol-description: PP-LFER solute descriptor determination from GC retention and partition coefficient data
# Type: physicochemical
# details: final adjusted value; shared within a PFAS group
value-kind: Solute descriptor S (dipolarity/polarizability parameter)
Give the figure only, with no unit attached.

Example results:
FC(F)C(F)(F)C(F)(F)C(F)(F)C(F)(F)C(F)(F)C(F)(F)C(F)F [1,8-DHPFO, 1H,8H-Perfluorooctane]	0.38
C=CC(F)(F)C(F)(F)C(F)(F)C(F)(F)C(F)(F)C(F)(F)C(F)(F)C(F)(F)C=C [1,8-DVPFO, 1,8-Divinylperfluorooctane]	0.44
C=CC(F)(F)C(F)(F)C(F)(F)C(F)(F)F [4:2 FTO, 1H,1H,2H-Perfluoro-1-hexene]	0.11
C=CC(F)(F)C(F)(F)C(F)(F)C(F)(F)C(F)(F)C(F)(F)F [6:2 FTO, 1H,1H,2H-Perfluoro-1-octene]	0.11
CCN(CCO)S(=O)(=O)C(F)(F)C(F)(F)C(F)(F)C(F)(F)C(F)(F)C(F)(F)F [EtFHxSE, N-Ethylperfluorohexanesulfonamidoethanol]	1.00

OCCC(F)(F)C(F)(F)C(F)(F)C(F)(F)F [4:2 FTOH, 1H,1H,2H,2H-Perfluorohexan-1-ol] has a reported Solute descriptor S (dipolarity/polarizability parameter) of 0.35
